- System: HOP-62
- assay: NCI tumour cell line growth inhibition, 48 h
Activity calls are given as the source filed them. Cut-off read from the data, not from the text of the source: active = GI50 up to about 1.1 µM and inactive = higher.
reported_property: GI50

INSERT INTO measurements (compound, reported_property, test_value) VALUES
  ('CC(C)(C)c1cc(C(=O)C2Cc3ccccc3C(=O)O2)cc(C(C)(C)C)c1O (stereo unspecified)', 'GI50', '13.7 µM (inactive)'),
  ('CC(C)CNc1nc(N)nc(O)c1NC=O', 'GI50', '> 100 µM (inactive)'),
  ('NC(=O)/C=C/C(=O)O', 'GI50', '> 5000 µM (inactive)'),
  ('CC(C(=O)NCCNC(=O)CCCC(=O)N(C)O)C(=O)NCCNC(=O)CCCC(=O)N(C)O', 'GI50', '> 100 µM (inactive)'),
  ('COc1ccc(N2C(=O)/C(=C\c3cccc(Oc4ccccc4)c3)SC2c2ccccc2)cc1 (stereo unspecified)', 'GI50', '64.9 µM (inactive)'),
  ('CCCCOC(=O)C1C2CCC(O2)C1C(=O)OCCCC (stereo unspecified)', 'GI50', '> 100 µM (inactive)'),
  ('COC(=O)[C@@H]1CN(C(C)=O)C(=O)N1', 'GI50', '> 100 µM (inactive)'),
  ('CC1=C(O)C(=O)C2C(=O)C1C(C)C2c1ccccc1 (stereo unspecified)', 'GI50', '> 100 µM (inactive)'),
  ('CC(C)(C)/N=c1/n(C(C)(C)C)oc(=O)n1C(C)(C)C', 'GI50', '> 100 µM (inactive)'),
  ('Nc1ncnc2nc(N3CCN(CCO)CC3)[nH]c12', 'GI50', '> 100 µM (inactive)'),
  ('CCC(=O)NC(NNS(=O)(=O)c1ccc(C)cc1)(C(F)(F)F)C(F)(F)F', 'GI50', '65.2 µM (inactive)');

###

- System: A498
- assay: NCI tumour cell line growth inhibition, 48 h
Active and inactive are the calls of the source. Rule as the data show it: active = GI50 up to about 1.1 µM and inactive = higher.
Possible outcomes: active, inactive

INSERT INTO assay_data (molecule, assigned_class) VALUES
  ('CC1(C)CC(=O)C2=C(C1)NC(SCC(=O)O)=C(C#N)C2c1ccc(Br)cc1 (stereo unspecified)', 'inactive'),
  ('COC(=O)C1=C(O)c2ccc(Cl)cc2S(=O)(=O)N1C', 'inactive'),
  ('Cc1coc2c1C(=O)C(=O)c1c-2ccc2c1CCCC2(C)C [TANSHINONE IIA]', 'inactive'),
  ('O=C(O)C1CCc2nnc(-c3ccccc3)n21 (stereo unspecified)', 'inactive'),
  ('Nc1nc2c(-c3ccc([N+](=O)[O-])cc3)nnn2c2ccccc12', 'inactive'),
  ('CC(=O)c1c(C(F)(F)F)[n+]([O-])c2cc(Cl)c(Cl)cc2[n+]1[O-]', 'inactive'),
  ('C#CCN(Cc1ccc2nc(OC)c(OC)nc2c1)c1cc(OC)c(OC)c(OC)c1', 'inactive'),
  ('O=C1C(/C=N/CCc2c[nH]c3ccccc23)C(C(F)(F)F)=NN1c1nc2ccccc2s1 (stereo unspecified)', 'inactive'),
  ('COC1C(O)C(n2ncc3c(SC)nc(SC)nc32)OC1C(O)CO (stereo unspecified)', 'inactive'),
  ('Cc1[nH]c(-c2ccccc2)c(-c2ccc(Cl)cc2)c1C(=O)ONC(=O)c1ccccc1', 'inactive'),
  ('O=C1CC2C=CC1C2CO (stereo unspecified)', 'inactive'),
  ('O=[N+]([O-])c1ccc(-c2cnc3ccccn23)cc1', 'inactive'),
  ('COc1ccc(C2c3cc4c(cc3OC(NCCO)C2C)OCO4)cc1 (stereo unspecified)', 'inactive'),
  ('Oc1c(Br)ccc2cccnc12', 'inactive'),
  ('C/C(=N\NC(=O)CC(=O)N(C(=O)c1ccc(Cl)cc1)c1ccc(C)cc1)c1ccccc1O', 'inactive'),
  ('O=C1Nc2ccc([N+](=O)[O-])cc2/C1=N/Nc1ccc([N+](=O)[O-])cc1', 'inactive'),
  ('COC(=O)/C(=C/c1ccc(OC)cc1)c1cc(OC)c(OC)c(OC)c1', 'inactive'),
  ('CCOCC(=O)N[C@H]1CCc2cc(OC)c(OC)c(OC)c2-c2ccc(SC)c(=O)cc21', 'active'),
  ('Cc1cc2oc(C)c(S(=O)(=O)NC(=O)Nc3ccc(Cl)cc3)c(=O)c2c(=O)o1', 'inactive'),
  ('N#C/C=C1\C=CC(O)C(O)C1OC1OC(CO)C(O)C(O)C1O (stereo unspecified)', 'inactive'),
  ('CC(C)C1=CC23CCC4C(C)(C(=O)O)CCCC4(C)C2CC1C1C(=O)N(c2ccccc2N2C(=O)C4C5CC6C7(C)CCCC(C)(C(=O)O)C7CCC6(C=C5C(C)C)C4C2=O)C(=O)C13 (stereo unspecified)', 'inactive');
